The origin of these recorded values is PubChem BioAssay AID588726.

- TARGET: Fructose-bisphosphate aldolase (Mycobacterium tuberculosis (strain ATCC 25618 / H37Rv)) (UniProt P9WQA3)
- Sequence (P9WQA3 whole entry, looked up): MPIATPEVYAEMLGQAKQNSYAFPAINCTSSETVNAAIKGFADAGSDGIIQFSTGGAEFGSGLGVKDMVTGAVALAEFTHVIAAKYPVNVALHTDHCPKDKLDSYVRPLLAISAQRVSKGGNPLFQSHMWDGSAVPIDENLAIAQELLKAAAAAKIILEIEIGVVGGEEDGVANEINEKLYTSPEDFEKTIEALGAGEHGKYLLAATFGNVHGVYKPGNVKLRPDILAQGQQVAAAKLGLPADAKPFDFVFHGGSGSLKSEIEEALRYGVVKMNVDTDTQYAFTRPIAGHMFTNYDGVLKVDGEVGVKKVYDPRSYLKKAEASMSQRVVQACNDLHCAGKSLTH
- TEST_SUMMARY: Mtb FBA enzyme inhibitors, primary screen, biochemical, fluorescence, strain H37Rv (AID 588726);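 also: 0% = vehicle and 100% = reference inhibitor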
- MEASUREMENT_CONTEXT: purified M. tuberculosis FBA, fluorescence read-out, at 1 µM
Among all 360,000 compounds or so, about 8,200 (2.3%) were called active. Rule as the data show it: active = inhibition above about 27%; inactive = the rest. This excerpt belongs to a sample that is enriched for actives.
Classes used: YES for active, NO for inactive

>  <COMPOUND>
O=S(=O)(c1ccc(Cl)s1)N1CCC2(CC1)OCCO2

>  <ASSIGNED_LABEL>
NO

$$$$
>  <COMPOUND>
COc1ccccc1CN1CCNC(=O)C1CC(=O)N(C)CC1CCOCC1 (stereo unspecified)

>  <ASSIGNED_LABEL>
NO

$$$$
>  <COMPOUND>
Cc1cc(NCc2ccco2)n2c(nc3ccccc32)c1C#N

>  <ASSIGNED_LABEL>
YES

$$$$
>  <COMPOUND>
Brc1cnc2ccccc2c1N1CCCCC1

>  <ASSIGNED_LABEL>
YES

$$$$
>  <COMPOUND>
Cc1cc(NC(C)C)n2c(nc3ccccc32)c1C#N

>  <ASSIGNED_LABEL>
YES

$$$$
>  <COMPOUND>
Cc1cccc(C)c1NC(=O)C1CCCN1C(=O)OC(C)(C)C (stereo unspecified)

>  <ASSIGNED_LABEL>
NO

$$$$
>  <COMPOUND>
Cc1coc(C)c1C(=O)CC1(O)C(=O)N(C)c2ccc(Cl)cc21 (stereo unspecified)

>  <ASSIGNED_LABEL>
NO

$$$$
>  <COMPOUND>
CCCCC(CC(C)O)c1n[nH]c(=S)n1-c1ccccc1 (stereo unspecified)

>  <ASSIGNED_LABEL>
NO

$$$$
>  <COMPOUND>
COCc1cc(=O)oc2cc(NS(=O)(=O)c3ccc(C)cc3)ccc12

>  <ASSIGNED_LABEL>
YES

$$$$
>  <COMPOUND>
CC(C)c1nc(N2CCOCC2)c(C#N)c2c1COC(C)(C)C2

>  <ASSIGNED_LABEL>
YES

$$$$
>  <COMPOUND>
O=C(NCCN1CCOCC1)c1ccc2c(c1)N(Cc1ccc(Cl)cc1)CCS2

>  <ASSIGNED_LABEL>
YES

$$$$

---

- TARGET: Fructose-bisphosphate aldolase (Mycobacterium tuberculosis (strain ATCC 25618 / H37Rv))
- TEST_SUMMARY: Mtb FBA enzyme inhibitors, primary screen, biochemical, fluorescence, strain H37Rv (AID 588726);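 also: 0% = vehicle and 100% = reference inhibitor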
- MEASUREMENT_CONTEXT: purified M. tuberculosis FBA, fluorescence read-out, at 1 µM, hits give high values
About 8,200 (2.3%) of roughly 360,000 compounds were called active. The full list was thinned out, with actives kept by preference.
Each entry below carries its reported inhibition.

>  <COMPOUND>
CC(Oc1cccc(Cl)c1)C(=O)NC1CC(C)(C)NC(C)(C)C1 (centres undefined)

>  <MEASUREMENT_UNIT>
%

>  <inhibition>
0.76

$$$$
>  <COMPOUND>
Cc1cc(OC(C)C(=O)NC2CC(C)(C)NC(C)(C)C2)c2c(C)cc(=O)oc2c1 (centres undefined)

>  <MEASUREMENT_UNIT>
%

>  <inhibition>
154

$$$$
>  <COMPOUND>
Cc1cc(=O)oc(C)c1C(=O)NC1CC(C)(C)NC(C)(C)C1

>  <MEASUREMENT_UNIT>
%

>  <inhibition>
0.07

$$$$
>  <COMPOUND>
CCOC(=O)c1c(S(=O)(=O)Nc2ccc(CN3CCC(C)CC3)cc2)c(C)n(C)c1C

>  <MEASUREMENT_UNIT>
%

>  <inhibition>
1.42

$$$$
